TESTED_TARGET: T1, 5-Helix (HIV-1 group M subtype B, HXB2 (gp41 …, stabilised))
T1 construct: also called designed protein based on HIV-1 gp41
ASSAY_TEXT: ELISA
RUN_PARAMETERS: one partner purified
Kindly supply the reported F_competitive (signal with 40 nM free 5-Helix / signal without) values for the records listed here.
API: value field is a number in fraction; no unit string.

Can you share its F_competitive (signal with 40 nM free 5-Helix / signal without)? I mean this binder: 25D6 bivalent scFv on phage (scFv, V domains shown) VH: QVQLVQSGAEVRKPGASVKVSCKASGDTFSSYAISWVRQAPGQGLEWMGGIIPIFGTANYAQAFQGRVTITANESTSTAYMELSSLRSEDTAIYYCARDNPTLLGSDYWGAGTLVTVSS VL: DIQMTQSPSTLSASIGDRVTITCRASENIYSNLAWYQQKPGKAPKLLISSASRLASGAPSRFSGSGSGTDFTLTISSLQPDDFATYYCQQNSNNPHTFGGGTKLEIK 0.1

Could you do the same for 16F5 bivalent scFv on phage (scFv, V domains shown) VH: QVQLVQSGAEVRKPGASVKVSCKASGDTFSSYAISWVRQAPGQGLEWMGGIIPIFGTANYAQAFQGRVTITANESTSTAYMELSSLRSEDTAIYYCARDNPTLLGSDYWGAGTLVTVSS VL: DIQMTQSPSTLSASIGDRVTITCRASENINDHLAWYQQKPGKAPKLLISRAYRLASGAPSRFSGSGSGTDFTLTISSLQPDDFATYYCQQYADTPFTFGGGTKLEIK , please? 0.2

What do you get for 16B7 bivalent scFv on phage (scFv, V domains shown) VH: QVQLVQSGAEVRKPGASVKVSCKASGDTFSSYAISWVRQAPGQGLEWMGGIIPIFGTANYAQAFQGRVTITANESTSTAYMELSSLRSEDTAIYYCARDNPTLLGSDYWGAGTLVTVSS VL: DIQMTQSPSTLSASIGDRVTITCRASENILRLLAWYQQKPGKAPKLLIYYASSLASGAPSRFSGSGSGTDFTLTISSLQPDDFATYYCQQRADYPYTFGGGTKLEIK ? 0.6

Try this binder next: 25F1 bivalent scFv on phage (scFv, V domains shown) VH: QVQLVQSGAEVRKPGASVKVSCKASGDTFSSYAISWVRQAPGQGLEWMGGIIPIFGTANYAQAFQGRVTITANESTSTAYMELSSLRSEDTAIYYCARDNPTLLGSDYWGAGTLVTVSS VL: DIQMTQSPSTLSASIGDRVTITCRASEGINNSLAWYQQKPGKAPKLLISRASRLASGAPSRFSGSGSGTDFTLTISSLQPDDFATYYCQQYSSTPHTFGGGTKLEIK 0.1

Quick one: 25A12 bivalent scFv on phage (scFv, V domains shown) VH: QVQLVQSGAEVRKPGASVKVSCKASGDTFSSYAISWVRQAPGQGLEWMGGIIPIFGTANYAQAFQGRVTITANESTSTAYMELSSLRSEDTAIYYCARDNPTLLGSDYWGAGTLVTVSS VL: DIQMTQSPSTLSASIGDRVTITCRASEGIHRYLAWYQQKPGKAPKLLIYHASRLASGAPSRFSGSGSGTDFTLTISSLQPDDFATYYCQQRANYPYTFGGGTKLEIK 0.1
